Values were extracted from ChEMBL document CHEMBL1137980.

- system_under_test: Opioid receptors; mu & delta (Rattus norvegicus) (UniProt P33533+P33535)
- Sequence (P33535 whole entry, looked up, one chain of several): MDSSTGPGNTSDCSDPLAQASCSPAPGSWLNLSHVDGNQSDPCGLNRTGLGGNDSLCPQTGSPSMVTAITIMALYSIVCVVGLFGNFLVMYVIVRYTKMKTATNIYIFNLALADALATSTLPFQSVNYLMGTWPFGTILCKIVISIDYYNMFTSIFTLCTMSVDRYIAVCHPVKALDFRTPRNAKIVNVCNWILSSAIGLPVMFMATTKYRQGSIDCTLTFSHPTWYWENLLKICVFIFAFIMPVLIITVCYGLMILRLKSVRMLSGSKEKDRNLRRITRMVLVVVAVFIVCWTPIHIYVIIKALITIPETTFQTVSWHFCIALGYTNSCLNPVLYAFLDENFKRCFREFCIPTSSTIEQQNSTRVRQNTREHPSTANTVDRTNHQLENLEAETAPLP
- experiment_description: Selectivity for mu 1 and delta 1 opioid receptors
- Format: protein assay
Residues, ends and D or L forms follow the SMILES beside them.
measured_property: Selectivity

Solved entries:
Recorded result, N[C@@H](Cc1ccc(O)cc1)C(=O)N1Cc2ccccc2C[C@H]1C(=O)NCCc1ccccc1 (HELM PEPTIDE1{Y.[Tic].[c1ccc(CCN[*:1])cc1]}$$$$V2.0) , Selectivity: 13

Recorded result, "N[C@@H](Cc1ccc(O)cc1)C(=O)N1Cc2ccccc2C[C@H]1c1nc(Br)c(-c2ccccc2)[nH]1" , Selectivity: 14

Hey, can you go through the list below and give me Selectivity for every item?
1. Cc1[nH]c([C@@H]2CCCN2C(=O)[C@@H](N)Cc2ccc(O)cc2)nc1-c1ccccc1
2. Cc1[nH]c([C@@H]2Cc3ccccc3CN2C(=O)[C@@H](N)Cc2ccc(O)cc2)nc1-c1ccccc1 (stereo in doubt)
3. N[C@@H](Cc1ccc(O)cc1)C(=O)N1Cc2ccccc2C[C@H]1c1nc2ccccc2[nH]1 (single isomer, unassigned)
4. Cc1[nH]c([C@@H]2CCCCN2C(=O)[C@@H](N)Cc2ccc(O)cc2)nc1-c1ccccc1

Marked response:
< 0.02
4
> 2
0.1

---

- system_under_test: Delta-type opioid receptor (Rattus norvegicus, UniProt P33533)
- Sequence (P33533 whole entry): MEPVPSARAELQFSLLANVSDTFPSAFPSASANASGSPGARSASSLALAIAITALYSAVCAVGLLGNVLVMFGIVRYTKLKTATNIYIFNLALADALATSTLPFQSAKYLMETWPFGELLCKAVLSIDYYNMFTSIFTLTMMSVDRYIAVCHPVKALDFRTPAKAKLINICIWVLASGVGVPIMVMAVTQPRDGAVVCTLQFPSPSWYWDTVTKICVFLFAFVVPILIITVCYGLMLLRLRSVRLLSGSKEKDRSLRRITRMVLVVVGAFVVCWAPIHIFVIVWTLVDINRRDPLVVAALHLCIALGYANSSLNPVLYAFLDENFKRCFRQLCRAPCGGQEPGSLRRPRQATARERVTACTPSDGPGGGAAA
- experiment_description: Binding affinity for delta opioid receptor of rat brain
Please provide measured pKi for the entries that follow.
Give bare numbers, as −log10 of the molar value.

Solved entries:
Recorded result, "Cc1[nH]c([C@@H]2CCCCN2C(=O)[C@@H](N)Cc2ccc(O)cc2)nc1-c1ccccc1" , pKi: 7.67

Recorded result, "N[C@@H](Cc1ccc(O)cc1)C(=O)N1Cc2ccccc2C[C@H]1c1nc2ccccc2[nH]1" , pKi: 7.82

Others:
Recorded result, Cc1[nH]c([C@@H]2Cc3ccccc3CN2C(=O)[C@@H](N)Cc2ccc(O)cc2)nc1-c1ccccc1 (stereo in doubt) , pKi: 7.71

---

- system_under_test: Mu-type opioid receptor (Cavia porcellus)
- Sequence (P97266 whole entry): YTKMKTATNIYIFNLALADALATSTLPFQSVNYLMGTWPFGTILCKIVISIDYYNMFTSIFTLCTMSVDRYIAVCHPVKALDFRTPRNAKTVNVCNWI
- experiment_description: Inhibition of mu opioid receptor mediated GTPgammaS binding to CHO cell membranes
Please provide measured pEC50 for the entries that follow.
One number for each entry, as −log10 of the molar value.

Hey, can you go through the list below and give me pEC50 for every item?
1. CN(C)C(=O)C(CCN1CCC(O)(c2ccc(Cl)cc2)CC1)(c1ccccc1)c1ccccc1 [LOPERAMIDE]
2. Cc1[nH]c([C@@H]2CCCN2C(=O)[C@@H](N)Cc2ccc(O)cc2)nc1-c1ccccc1

Marked response:
1. 7.24
2. 5.89

---

- system_under_test: Delta-type opioid receptor (Homo sapiens)
- Sequence (P41143 whole entry): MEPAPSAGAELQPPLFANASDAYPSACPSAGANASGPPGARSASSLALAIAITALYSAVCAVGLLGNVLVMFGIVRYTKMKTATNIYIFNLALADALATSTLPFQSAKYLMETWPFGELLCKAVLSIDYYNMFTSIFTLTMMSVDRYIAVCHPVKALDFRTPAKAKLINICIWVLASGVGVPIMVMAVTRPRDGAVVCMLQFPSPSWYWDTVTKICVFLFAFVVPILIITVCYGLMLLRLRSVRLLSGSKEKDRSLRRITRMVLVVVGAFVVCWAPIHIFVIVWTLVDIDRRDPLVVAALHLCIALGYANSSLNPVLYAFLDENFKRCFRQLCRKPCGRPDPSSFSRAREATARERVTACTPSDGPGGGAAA
- experiment_description: Inhibition of delta opioid receptor mediated GTPgammaS binding to CHO cell membranes
Please provide measured pEC50 for the entries that follow.
Give bare numbers, as −log10 of the molar value.

Solved entries:
Recorded result, N[C@@H](Cc1ccc(O)cc1)C(=O)N1Cc2ccccc2C[C@H]1c1nc2ccccc2[nH]1 (single isomer, unassigned) , pEC50: 6.36

Recorded result, Cc1[nH]c([C@@H]2Cc3ccccc3CN2C(=O)[C@@H](N)Cc2ccc(O)cc2)nc1-c1ccccc1 (stereo in doubt; 4c) , pEC50: 8.85

Recorded result, Cc1[nH]c([C@@H]2Cc3ccccc3CN2C(=O)[C@@H](N)Cc2ccc(O)cc2)nc1-c1ccccc1 (stereo in doubt) , pEC50: 6.90

Switching to the query record.
Recorded result, "N[C@@H](Cc1ccc(O)cc1)C(=O)N1Cc2ccccc2C[C@H]1c1nc(-c2ccccc2)c[nH]1" , pEC50: 7.60
